measurement-protocol: inhibitors of the yeast RAM network, primary screen, dse1pr::URA3 reporter, 5-FOA selection (AID 868);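 also: 0% = DMSO-only wells with no growth and 100% = 10 µM 1-NA-PP1 full growth; inhibition rescues growth on 5-FOA so higher OD means more RAM inhibition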
condition-context: S. cerevisiae dse1pr::URA3 reporter, 5-FOA growth OD615, 2 d; at 50 µM; active compounds read high; analog-sensitive cbk1-as2 kinase mutant strain
In all, about 190,000 compounds went through this assay and about 3,500 (1.8%) were called active. Shown is part of a subset that was picked to be rich in actives.
measured-endpoint: inhibition

> print(dat)
                      smiles.representation  measured.endpoint             result
1              O=C(OCC(=O)c1cccs1)C1=COCCO1         inhibition   0.33% (inactive)
2  COc1ccc(CCN(C)CCN2C(=O)c3ccccc3C2=O)cc1OC         inhibition  -0.11% (inactive)
3               Cc1cccc(C(=O)c2cccc(C)c2)c1         inhibition   1.11% (inactive)

Turning to the following molecule.
[Q] Recorded inhibition for `COc1ccccc1NC(=O)/C=C/C(=O)O` , please?
[A] 2.02% (inactive)

---

measurement-protocol: inhibitors of the yeast RAM network, primary screen, dse1pr::URA3 reporter, 5-FOA selection (AID 868)
condition-context: S. cerevisiae dse1pr::URA3 reporter, 5-FOA growth OD615, 2 d; at 50 µM; active compounds read high; analog-sensitive cbk1-as2 kinase mutant strain
Out of some 190,000 compounds screened, about 3,500 (1.8%) were called active. Only a selection was taken, and actives are over-represented in it overall.
Reported inhibition is given for each of the following compounds.
Report as a plain number; the unit % is understood.

Solved entries:
> print(dat)
                                   compound  measured.endpoint  display.unit  recorded.number
1  COc1ccc(C2CC(c3cccs3)=NN2c2nc(C)c(C(C)=O)s2)cc1OC (configuration not stated)         inhibition             %              9.6
2  Cn1cc(/C=C/C(=O)N2CCCC(C(=O)c3ccc(C(F)(F)F)cc3)C2)cn1 (configuration not stated)         inhibition             %            -1.92
3  FC(F)(F)c1cnc(Oc2ccccc2-c2nnc(-c3ccc(Cl)cc3)o2)c(Cl)c1         inhibition             %             4.37
4   Cc1ccc2[nH]c(C)c(CCNC(=O)NC3CCCCC3)c2c1         inhibition             %             1.04
5              CN(C)CCCNC(=S)NCc1ccc(Cl)cc1         inhibition             %             0.25
6             Cc1cccc(CSc2nnc(C)c(=O)n2N)c1         inhibition             %             0.13

[Q] Item `CCOCCCNCc1cc(Br)ccc1OCC` has what recorded inhibition?
[A] 1.92

[Q] // same read-out, input: `Cc1cccc(NS(=O)(=O)c2ccc(C)c(C(N)=O)c2)c1`
[A] 0.63

[Q] // next record `CN1CCN(c2ccc(S(=O)(=O)N3CCCCC3)cc2NC(=O)Cc2ccccc2F)CC1`
[A] 1.32

[Q] Next compound: `COCCn1c(C)cc(C(=O)COC(=O)/C=C/c2cccc(OC)c2)c1C`
[A] 8.25

[Q] Note, next up: `S=C(NCc1ccc(Cl)cc1)NC1CCCCC1`
[A] 10.9

[Q] Request: `Nc1nc(SCc2ccccc2Cl)n[nH]1`
[A] 2.44

---

Known inhibition of a selection of molecules
measurement-protocol: inhibitors of the yeast RAM network, primary screen, dse1pr::URA3 reporter, 5-FOA selection (AID 868);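 also: 0% = DMSO-only wells with no growth and 100% = 10 µM 1-NA-PP1 full growth; inhibition rescues growth on 5-FOA so higher OD means more RAM inhibition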
condition-context: S. cerevisiae dse1pr::URA3 reporter, 5-FOA growth OD615, 2 d; at 50 µM; active compounds read high; analog-sensitive cbk1-as2 kinase mutant strain
Among all 190,000 compounds or so, about 3,500 (1.8%) were called active. This excerpt belongs to a sample that is enriched for actives.
Reply with just the number (in %).

Below: 10 molecules and their reported inhibition.
> print(dat)
                                    molecule  recorded.number
 1  Cc1cccc(CN2CCN(Cc3cnn(-c4ccccc4F)c3)CC2CCO)n1 (stereo not drawn)            -0.13
 2  CCNC(=S)N1CCC(c2nc3cc(C)c(C)cc3[nH]2)CC1            -0.13
 3  NS(=O)(=O)c1ccc(NC(=S)NC(=O)c2cccc(Br)c2)cc1             15.5
 4        O=C(Cc1coc2ccc3ccccc3c12)NCc1cccs1             1.23
 5  Cc1cccc(N2CCN(C(=O)c3cnn4c(C(F)F)cc(-c5ccccc5)nc34)CC2)c1C             12.1
 6  NS(=O)(=O)c1cccc(NC(=O)COC(=O)/C=C/c2ccco2)c1             0.38
 7           C=CCOc1c(CNn2cn[nH]c2=S)cccc1OC             0.75
 8          O=C(Nc1ccnc(-c2ccncc2)n1)c1cccs1            -0.85
 9  COc1ccc(S(=O)(=O)N(C)CC(=O)Nc2ccc3c(c2)OCCO3)cc1OC             9.23
10        Cc1ccccc1NS(=O)(=O)CCCCC(Cl)(Cl)Cl             1.86

[Q] // query inhibition value for entry `NC(N)=Nc1nc2ccc(Br)cc2c(=O)[nH]1`
[A] -0.37

[Q] Repeat with `CN(C)S(=O)(=O)c1ccc(NC(=O)COC(=O)c2n[nH]c3ccccc23)cc1`
[A] 5.03

[Q] Repeat for the following molecule: `CN(C)c1nnnn1-c1ccc(Cl)cc1`
[A] -0.37

[Q] Request: `Nc1ncnc(Nc2cccc(Cl)c2Cl)n1`
[A] 0.27

[Q] How about `O=C(CNC(=O)c1cc2c(s1)CCC2)Nc1ccccc1Br` ?
[A] 1.93

[Q] Repeat with `COc1ccc(/C=C2\SC(=N)N(c3ccc(F)cc3)C2=O)cc1`
[A] 2.04

---

Below, each entry is listed with its recorded inhibition.
measurement-protocol: inhibitors of the yeast RAM network, primary screen, dse1pr::URA3 reporter, 5-FOA selection (AID 868);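 also: 0% = DMSO-only wells with no growth and 100% = 10 µM 1-NA-PP1 full growth; inhibition rescues growth on 5-FOA so higher OD means more RAM inhibition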
condition-context: S. cerevisiae dse1pr::URA3 reporter, 5-FOA growth OD615, 2 d; at 50 µM; active compounds read high; analog-sensitive cbk1-as2 kinase mutant strain
Hit rate of the full screen: of about 190,000 compounds, about 3,500 (1.8%) were called active. This excerpt belongs to a sample that is enriched for actives.
Give the value in % but do not write % after it.

> print(dat)
                                   compound  measured.endpoint  display.unit  recorded.number
1  CC(C)CCN1C(=O)c2ccc(C(=O)Nc3cccc(S(N)(=O)=O)c3)cc2C1=O         inhibition             %             9.03
2            COc1cc(NC(=O)N2CCOCC2)cc(OC)c1         inhibition             %             0.39

[Q] Sample `O=C(CN1CCN(Cc2ccc(F)cc2Cl)C1=O)NCc1cccs1` — what was its inhibition?
[A] 0.13

[Q] Another: `COc1cccc(C(=O)Nc2cc3c(cc2Br)OCCCO3)c1`
[A] 1.75

[Q] Moving on to CCCCn1ccnc1C(=O)c1cccc(S(=O)(=O)N2c3ccccc3CC2C)c1 (stereo not given)
[A] 11.4

[Q] What about this compound? `COc1ccc2c(c1)CCc1c(C(=O)N3CCc4ccccc4C3)noc1-2`
[A] 12.2

[Q] Now this one: COC(=O)C(C)NC(=O)COc1ccc2ccccc2c1 (stereo not given)
[A] 1.01

[Q] Also, `Cc1cccc(C(=O)Nc2ccc3c(c2)C(=O)N(CC(C)C)C3=O)c1` please.
[A] 3.29

[Q] What do you have for `O=C(N/N=C/c1ccc(OCc2ccccc2)cc1)c1ccc(O)cc1` ?
[A] 1.57

[Q] Also `CCCCN1C(=O)c2ccc(C(=O)Nc3ccc(S(=O)(=O)N(C)C)cc3)cc2C1=O` ?
[A] 3.73

[Q] Note, next up: `O=C(C1=C[C@H](c2ccc(C(F)(F)F)cc2)C[C@H](OCc2ccc(CO)cc2)O1)N1CCN(Cc2ccccc2)CC1`
[A] 2.29

[Q] Also, `O=C(NCc1ccccc1)C1=C[C@H](C2CC2)C[C@H](OCc2ccc(CO)cc2)O1` please.
[A] -0.5

---

measurement-protocol: inhibitors of the yeast RAM network, primary screen, dse1pr::URA3 reporter, 5-FOA selection (AID 868);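 also: 0% = DMSO-only wells with no growth and 100% = 10 µM 1-NA-PP1 full growth; inhibition rescues growth on 5-FOA so higher OD means more RAM inhibition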
condition-context: S. cerevisiae dse1pr::URA3 reporter, 5-FOA growth OD615, 2 d; at 50 µM; analog-sensitive cbk1-as2 kinase mutant strain
The whole screen tested about 190,000 compounds, of which about 3,500 (1.8%) were called active.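 How the source made its calls: active means inhibition above a set limit, 3 SD over mean compound inhibition (cut at about 8.4% in these data); inactive means the rest.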 The full list was thinned out, with actives kept by preference.
Choose one outcome from this list and give only that: True = active, False = inactive

> print(dat)
                                   compound  group.label
1  COc1cc(NC(=O)COC(=O)CSc2ccc3ccccc3c2)c(C)cc1[N+](=O)[O-]        False
2  CCC/C=C(\CCC)C(NC(=O)Cc1ccccc1)c1ccc(C(=O)OC)cc1 (configuration not stated)         True
3  C/C(=N\NC(=O)NC1CCCCC1)c1ccc(OC(F)F)cc1OC(F)F        False
4  O=C(O)c1cnn2c(C(F)(F)F)cc(-c3ccccc3)nc12        False
5           Cc1noc(C)c1COc1ccc2ccc(=O)oc2c1        False

[Q] Kindly provide the recorded test outcome for the following compound: `COc1cccc2cc(/C(C)=N/NC(=O)c3ccco3)oc12`
[A] False

[Q] Repeat for the following compound: COC(=O)CCCCCN1C(=O)NC(c2ccc(-c3ccccc3)cc2)C(C(=O)OCc2ccccc2)=C1C (configuration not stated)
[A] True

[Q] Note, next up: `CCOc1ccc(-n2c(O)c(/C=N/Nc3nc(C)cc(C)n3)c3ccccc3c2=O)cc1`
[A] False

[Q] Then `C=CCN(CC=C)C(=O)COC(=O)c1n[nH]c2ccccc12` ?
[A] False

[Q] For `CCOC(=O)/C(C#N)=C/c1ccc(N2CCN(Cc3ccccc3)CC2)cc1` then?
[A] False

[Q] Item: `Cc1cc(NS(=O)(=O)c2ccccc2)no1`
[A] False

[Q] Consider next the compound `Cn1c(=O)n(Cc2ccco2)c(=N)c2c3c(sc21)CCCC3` in the same way.
[A] False

Data credit: PubChem BioAssay AID868
